# Test system: PHH spheroids
# protocol details: Chronic toxicity assay in PHH spheroids, viability by cellular ATP content
# Type: cell-based, human
# run parameters: Homo sapiens; PHH spheroids, viability by ATP content, dosing every second day, 7d (legend: 8 days); read-out: EC50 (μM) 7d
Recorded measurements of EC50, one per entry
attribute measured: EC50 (µM)

> print(dat)
                                item.smiles  attribute.measured  readout.unit  reported.value
1  Cc1ccc(C(=O)c2cc(O)c(O)c([N+](=O)[O-])c2)cc1                EC50            µM             9.4
2  COc1ccccc1Oc1c(NS(=O)(=O)c2ccc(C(C)(C)C)cc2)nc(-c2ncccn2)nc1OCCO                EC50            µM            69.5
3  O=c1[nH]c(=O)n([C@@H]2O[C@H](CO)[C@@H](O)[C@@H]2F)cc1I                EC50            µM             0.7
4            O=C(O)Cc1ccccc1Nc1c(Cl)cccc1Cl                EC50            µM            56.8

====

# System: PHH spheroids
# protocol details: Toxicity in non-infected and adenovirus (AdGL)-infected PHH spheroids
# Format: cell-based, human
# run parameters: Homo sapiens, virus-infected PHH spheroids (AdGL, MOI 0.1)
attribute measured: EC50

> print(dat)
                                item.smiles  attribute.measured  reported.value
1  N[C@@H]1[C@H]2CN(c3nc4c(cc3F)c(=O)c(C(=O)O)cn4-c3ccc(F)cc3F)C[C@@H]12                EC50         32.9 µM

====

# Test system: PHH spheroids
# protocol details: Toxicity in non-infected and adenovirus (AdGL)-infected PHH spheroids
# Assay type: cell-based, human
# run parameters: Homo sapiens, non-infected PHH spheroids
pEC50: −log10 of the molar value.
attribute measured: pEC50

> print(dat)
                                item.smiles  reported.value
1  N[C@@H]1[C@H]2CN(c3nc4c(cc3F)c(=O)c(C(=O)O)cn4-c3ccc(F)cc3F)C[C@@H]12            4.02

====

# System: PHH spheroids
# protocol details: Chronic toxicity assay in PHH spheroids, viability by cellular ATP content
# Assay type: cell-based, human
# run parameters: Homo sapiens, 672 h; PHH spheroids, repeated dosing, 4 weeks; read-out: EC50 after 4 weeks
attribute measured: EC50 (nM)

> print(dat)
                                item.smiles  readout.unit  reported.value
1  O=c1[nH]c(=O)n([C@@H]2O[C@H](CO)[C@@H](O)[C@@H]2F)cc1I            nM             100

Data provenance: paper PMC4855186
